test system: E. coli NIHJ; test: Antibacterial activity (minimum effective inhibitory concentration); type: cell-based; conditions: Escherichia coli; E. coli NIHJ; read-out: minimum effective inhibitory concentrations
# key: entry, value: MIC

Past entries and their recorded results:
molecule="CC(C)(ON=C(C(=O)NC1C(=O)N2C(C(=O)[O-])=C(C[n+]3cc(N)cc(N)c3)CSC12)c1csc(N)n1)C(=O)O (stereo not drawn)" parameter_measured=MIC result="< 0.2 µg/mL"
molecule="CON=C(C(=O)NC1C(=O)N2C(C(=O)[O-])=C(C[n+]3ccc(N)c(N)c3)CSC12)c1csc(N)n1 (stereo not drawn)" parameter_measured=MIC result="< 0.2 µg/mL"

Moving on to another molecule below.
MIC in this record for CO/N=C(\C(=O)N[C@@H]1C(=O)N2C(C(=O)[O-])=C(C[n+]3ccc(OCC(O)CO)c(N)c3)CS[C@H]12)c1csc(N)n1 (stereo partly drawn) : < 0.2 µg/mL
